Molecular target: HERG (Homo sapiens)
Sequence (Q12809 whole entry): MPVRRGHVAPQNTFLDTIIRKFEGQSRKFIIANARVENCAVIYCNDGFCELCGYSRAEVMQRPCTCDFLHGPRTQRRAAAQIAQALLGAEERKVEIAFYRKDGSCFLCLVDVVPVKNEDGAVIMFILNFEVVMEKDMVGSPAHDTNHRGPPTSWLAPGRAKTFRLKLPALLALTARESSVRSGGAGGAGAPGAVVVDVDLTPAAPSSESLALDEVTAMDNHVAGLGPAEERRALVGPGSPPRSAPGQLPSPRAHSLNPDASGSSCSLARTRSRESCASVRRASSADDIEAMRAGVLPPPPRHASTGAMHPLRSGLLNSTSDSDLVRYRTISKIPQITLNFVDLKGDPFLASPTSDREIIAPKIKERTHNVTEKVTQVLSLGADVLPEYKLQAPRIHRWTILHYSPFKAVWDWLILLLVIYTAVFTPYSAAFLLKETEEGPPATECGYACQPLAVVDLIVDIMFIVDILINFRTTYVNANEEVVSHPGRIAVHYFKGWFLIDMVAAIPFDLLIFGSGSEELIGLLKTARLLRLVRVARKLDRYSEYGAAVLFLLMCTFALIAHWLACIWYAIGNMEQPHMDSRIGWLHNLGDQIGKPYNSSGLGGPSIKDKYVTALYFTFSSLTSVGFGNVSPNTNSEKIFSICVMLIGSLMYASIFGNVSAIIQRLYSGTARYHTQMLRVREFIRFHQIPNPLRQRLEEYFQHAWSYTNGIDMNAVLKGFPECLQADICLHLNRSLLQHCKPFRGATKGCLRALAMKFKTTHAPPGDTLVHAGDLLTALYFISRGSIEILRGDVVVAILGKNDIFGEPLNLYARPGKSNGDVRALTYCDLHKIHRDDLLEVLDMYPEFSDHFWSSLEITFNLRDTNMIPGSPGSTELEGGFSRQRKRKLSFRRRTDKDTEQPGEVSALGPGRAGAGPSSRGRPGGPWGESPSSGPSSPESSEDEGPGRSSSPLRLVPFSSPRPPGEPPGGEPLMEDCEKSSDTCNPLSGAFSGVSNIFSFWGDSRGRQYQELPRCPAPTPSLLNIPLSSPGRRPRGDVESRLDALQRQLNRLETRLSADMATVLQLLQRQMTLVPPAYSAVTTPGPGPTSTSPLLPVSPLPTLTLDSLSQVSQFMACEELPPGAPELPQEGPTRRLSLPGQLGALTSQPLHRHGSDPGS
Assay: HERG Patch Clamp EP
Conditions: human, HEK cells stably overexpressing HERG
quantity name: inhibition at 10 µM (%)
Numbers only, in %.

C=CS(=O)(=O)NN1CC(c2ccc3c(c2)OCCO3)N(CCc2ccc(OC)cc2)C1=O (stereo not shown) | 20
COc1ccc(CCN2C(=O)N(NS(C)(=O)=O)CC2c2ccc(OC)c(C)c2)cc1 (stereo not shown) | 19
COc1ccc(CCN2C(=O)N(NS(C)(=O)=O)CC2c2ccc(C)c(OC)c2)cc1 (stereo not shown) | 10

Continue with the molecule presented below.
Can you look up the measured inhibition at 10 µM of COc1ccc(CCN2C(=O)N(NS(C)(=O)=O)CC2c2ccc(C)cc2)cc1 (stereo not shown) for me?
15

###

Target: Kv1.5 (Homo sapiens)
Construct: expressed in transfected cells; host or cells: HEK or LTK- cells
Sequence (P22460 whole entry): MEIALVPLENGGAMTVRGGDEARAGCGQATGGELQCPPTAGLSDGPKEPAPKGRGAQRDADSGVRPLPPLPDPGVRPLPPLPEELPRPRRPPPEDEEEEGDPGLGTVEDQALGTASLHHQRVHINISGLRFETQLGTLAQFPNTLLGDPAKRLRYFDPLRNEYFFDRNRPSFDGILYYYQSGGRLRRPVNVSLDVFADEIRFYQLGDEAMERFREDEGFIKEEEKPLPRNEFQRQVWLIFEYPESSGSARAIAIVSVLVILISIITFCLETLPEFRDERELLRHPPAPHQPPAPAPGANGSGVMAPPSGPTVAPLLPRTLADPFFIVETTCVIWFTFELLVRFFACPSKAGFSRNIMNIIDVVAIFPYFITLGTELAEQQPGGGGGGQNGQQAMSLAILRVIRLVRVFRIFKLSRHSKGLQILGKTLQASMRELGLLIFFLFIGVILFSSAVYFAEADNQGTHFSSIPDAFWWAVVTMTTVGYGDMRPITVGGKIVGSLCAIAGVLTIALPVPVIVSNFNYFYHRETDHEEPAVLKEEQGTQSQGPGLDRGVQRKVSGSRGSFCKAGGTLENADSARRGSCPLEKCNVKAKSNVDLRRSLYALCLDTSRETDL
Assay: Kv1.5 Patch Clamp EP
Type: cell-based
Conditions: 1.0 μM, single point; whole cell patch clamp, Kv1.5 stably over expressed in HEK or LTK- cells
// f strictly below 40% in inhibition at 1 µM; t otherwise

COc1ccc(CCN2C(=O)N(NS(N)(=O)=O)CC2c2ccc(C(C)(C)C)cc2)cc1 (centres unmarked) | t
COCCOc1ccc(C2CN(N)C(=O)N2CCc2ccc(OC)cc2)cc1 (centres unmarked) | f
COc1ccc(CCN2C(=O)N(NS(=O)(=O)CCN3CCOCC3)CC2c2ccc3c(c2)OCCO3)cc1 (centres unmarked) | t
COc1ccc(CCN2C(=O)N(NS(C)(=O)=O)C[C@H]2c2ccc(OC(F)F)cc2)cc1 | t
COc1ccc(CCN2C(=O)N(NCc3ccccc3)CC2c2ccc(C(C)(C)C)cc2)cc1 (centres unmarked) | t
COc1ccc(CCN2C(=O)N(N)CC2c2ccc(C)cc2)cc1 (centres unmarked) | f
COc1ccc(CCN2C(=O)N(N(CCn3ccnc3)C(=O)C(C)C)CC2c2ccc(C(C)(C)C)cc2)cc1 (centres unmarked) | t

Now, please, on to the next compound.
Entry COc1ccc(CCN2C(=O)N(NS(=O)(=O)CF)CC2c2ccc(C(C)(C)C)cc2)cc1 (centres unmarked) : is its inhibition at 1 µM no less than 40%?
t

###

Molecular target: Kv1.5 (Homo sapiens)
Construct: expressed in transfected cells; host or cells: HEK or LTK- cells
Test: Kv1.5 Patch Clamp EP
Format: cell-based
Details: 1.0 μM, single point; whole cell patch clamp, Kv1.5 stably over expressed in HEK or LTK- cells
quantity name: inhibition at 1 µM
Quick note: number first, unit second.

COc1ccc(CCN2C(=O)N(NS(C)(=O)=O)CC2c2ccc3c(c2)OC(C)(C)O3)cc1 (centres unmarked) | 59%
COc1ccc(CCN2C(=O)N(NS(C)(=O)=O)C[C@H]2c2ccc(C(C)(C)C)cc2)cc1 | 55%
COc1ccc(CCN2C(=O)N(NC(=O)c3ccno3)CC2c2ccc(C)c(C)c2)cc1 (centres unmarked) | 75%

Need inhibition at 1 µM for each of these compounds.
1. COc1ccc(CCN2C(=O)N(NCc3ccc(N(C)C)cc3)CC2c2ccc(OC)cc2)cc1 (centres unmarked)
2. COc1ccc(CCN2C(=O)N(NS(N)(=O)=O)CC2c2ccc(OC)cc2)cc1 (centres unmarked)
3. COc1ccc(CCN2C(=O)N(NS(=O)(=O)N3CCN(C)CC3)CC2c2ccc(C)c(C)c2)cc1 (centres unmarked)
4. COc1ccc(CCN2C(=O)N(NS(C)(=O)=O)CC2c2ccc3c(c2)OCCO3)cc1OC (centres unmarked)
5. COc1ccc(CCN2C(=O)N(NCC3CC3)CC2c2ccc(C)c(C)c2)cc1 (centres unmarked)

["74%", "36%", "41%", "16%", "20%"]
